Reference source: PubChem BioAssay (NCI)

Items are presented alongside their recorded growth.
Tested on: SK-OV-3 ovarian
Assay: NCI-60 one-dose screen, 48 h (100 = growth as untreated, 0 = no growth, -100 = all killed)
Details: 10 µM unless noted
Compounds without any hit were thinned out: in the full panel of roughly 83,000, 20% have a hit.

- Molecule: "CSc1ncc2ncn(C3OC(CO)C(O)C3O)c2n1 (stereo unspecified)"
  growth / %: 104
- Molecule: "Cc1cc2c(C#N)n3c(c2cc1C)C(=O)C(c1ccccc1)Oc1ccccc1-3 (stereo unspecified)"
  growth / %: 39.6
- Molecule: "NC(N)=NN=c1c(=O)c2ccccc2c1=O"
  growth / %: 98.1
- Molecule: "CCOC(=O)/C(=C/c1ccccc1)C(=O)c1ccccc1"
  growth / %: 92.6
- Molecule: "c1csc([C@@H]2C[C@@H]3Cc4ccc5ccccc5c4N2O3)c1"
  growth / %: 102
- Molecule: "COc1ccc(-c2nn(-c3cccc(Cl)c3)cc2C2CC(c3ccccc3)=NN2C(C)=O)cc1 (stereo unspecified)"
  growth / %: 32.2
